# System: EKVX NSCLC
# experiment_notes: NCI tumour cell line growth inhibition, 48 h
measurement_name: TGI

Some molecules with recorded TGI:
Nc1nc2ncn(CC(O)COC(=O)c3ccccc3)c2c(=O)[nH]1 (stereo unspecified): > 100 µM
C=C(CO)[C@H]1Oc2ccc(C(C)=O)cc2[C@@H]1O: > 100 µM
COc1cc2c(cc1OC)C(=O)/C(=C/c1cc(Cl)cc(Cl)c1)C2: > 100 µM
Nc1c(Br)cc(-c2nc3ccccc3s2)cc1Br: > 100 µM
N#Cc1c(N)c(C#N)c2c(c1-c1ccc(Cl)cc1)COc1ccc(F)cc1-2: > 50 µM
COC(=O)N/N=C(\c1ccccc1)c1ccc(OC)cc1: > 100 µM

Which TGI value is on record for CC1C(=O)C(C)C(c2ccco2)N(N=O)C1c1ccco1 (stereo unspecified) ?
> 100 µM
